Values compiled from patent US20150119373A1.

- assay_text: Cyto-toxicity assay (MTT) in MT2 cells without virus
- Type: cell-based
- cond: human
quantity: viability at 1000 nM (%)
Please reply with the bare figure in % and do not write the unit itself.

Q: Name the reported viability at 1000 nM value associated with the compound C=C(C)[C@@H]1CC[C@]2(C(=O)N[C@@H]3C[C@H](C(=O)N4CCCCC4)C3(C)C)CC[C@]3(C)[C@H](CC[C@@H]4[C@@]5(C)CC[C@H](OC(=O)[C@H]6[C@@H](CC(=O)O)C6(C)C)C(C)(C)[C@@H]5CC[C@]43C)[C@@H]12
Ans: 77

Q: Try this compound too: COCCOCCOC1CCN(C(=O)[C@]23CC[C@@H](C4(C)CC4)[C@@H]2[C@H]2CC[C@@H]4[C@@]5(C)CC[C@H](OC(=O)[C@H]6C[C@@H](C(=O)O)C6(C)C)C(C)(C)[C@@H]5CC[C@@]4(C)[C@]2(C)CC3)CC1
Ans: 86

Q: Try this compound too: C=C(C)[C@@H]1CC[C@]2(c3nnc(-c4cccnc4)o3)CC[C@]3(C)[C@H](CC[C@@H]4[C@@]5(C)CC[C@H](OC(=O)[C@H]6[C@@H](CC(=O)O)C6(C)C)C(C)(C)[C@@H]5CC[C@]43C)[C@@H]12
Ans: 87

Q: Try this compound too: CC(C)(C)OC(=O)N1CCN(C(=O)[C@]23CC[C@@H](C4(C)CC4)[C@@H]2[C@H]2CC[C@@H]4[C@@]5(C)CC[C@H](OC(=O)[C@H]6C[C@@H](C(=O)O)C6(C)C)C(C)(C)[C@@H]5CC[C@@]4(C)[C@]2(C)CC3)CC1
Ans: 83

Q: Try this compound too: [2H]C([2H])([2H])C(CC(=O)O[C@H]1CC[C@]2(C)[C@H]3CC[C@@H]4[C@H]5[C@H](C6(C)CC6)CC[C@]5(C(=O)N5CCN(CC)CC5)CC[C@@]4(C)[C@]3(C)CC[C@H]2C1(C)C)(C(=O)O)C([2H])([2H])[2H]
Ans: 82

Q: Try this compound too: CC(C)(CC(=O)O[C@H]1CC[C@]2(C)[C@H]3CC[C@@H]4[C@H]5[C@H](C6(C)CC6)CC[C@]5(C(=O)N5CCC(C#N)(c6ccccc6)CC5)CC[C@@]4(C)[C@]3(C)CC[C@H]2C1(C)C)C(=O)O
Ans: 80

Q: Try this compound too: CC(C)(CC(=O)O[C@H]1CC[C@]2(C)[C@H]3CC[C@@H]4[C@H]5[C@H](C6(C)CC6)CC[C@]5(C(=O)N5CCC(OCCN6CCOCC6)CC5)CC[C@@]4(C)[C@]3(C)CC[C@H]2C1(C)C)C(=O)O
Ans: 96

Q: Try this compound too: COCCOCCOC1CCN(C(=O)[C@]23CC[C@@H](C4(C)CC4)[C@@H]2[C@H]2CC[C@@H]4[C@@]5(C)CC[C@H](OC(=O)CC(C)(C)C(=O)O)C(C)(C)[C@@H]5CC[C@@]4(C)[C@]2(C)CC3)CC1
Ans: 100

Q: Try this compound too: CCN1CCN(C(=O)[C@]23CC[C@@H](C4(C)CC4)[C@@H]2[C@H]2CC[C@@H]4[C@@]5(C)CC[C@H](OC(=O)CC(C)(C)CC(=O)O)C(C)(C)[C@@H]5CC[C@@]4(C)[C@]2(C)CC3)CC1
Ans: 99

Q: Try this compound too: CC1([C@@H]2CC[C@]3(C(=O)N4CCN(CCCN5CCOCC5)CC4)CC[C@]4(C)[C@H](CC[C@@H]5[C@@]6(C)CC[C@H](OC(=O)[C@H]7C[C@@H](C(=O)O)C7(C)C)C(C)(C)[C@@H]6CC[C@]54C)[C@@H]23)CC1
Ans: 91

Q: Try this compound too: CC(C)(CC(=O)O[C@H]1CC[C@]2(C)[C@H]3CC[C@@H]4[C@H]5[C@H](C6(C)CC6)CC[C@]5(C(=O)N5CCN(CCN6CCOCC6)CC5)CC[C@@]4(C)[C@]3(C)CC[C@H]2C1(C)C)C(=O)O
Ans: 95

Q: Try this compound too: COCCOCCN1CCN(C(=O)[C@]23CC[C@@H](C4(C)CC4)[C@@H]2[C@H]2CC[C@@H]4[C@@]5(C)CC[C@H](OC(=O)[C@H]6C[C@@H](C(=O)O)C6(C)C)C(C)(C)[C@@H]5CC[C@@]4(C)[C@]2(C)CC3)CC1
Ans: 81

Q: Try this compound too: CC1([C@@H]2CC[C@]3(C(=O)N[C@@H]4C[C@H](C(=O)N5CCCCC5)C4(C)C)CC[C@]4(C)[C@H](CC[C@@H]5[C@@]6(C)CC[C@H](OC(=O)[C@H]7C[C@@H](C(=O)O)C7(C)C)C(C)(C)[C@@H]6CC[C@]54C)[C@@H]23)CC1
Ans: 93

Q: Try this compound too: C=C(C)[C@@H]1CC[C@]2(C(=O)N3CCCCC3)CC[C@]3(C)[C@H](CC[C@@H]4[C@@]5(C)CC[C@H](OC(=O)[C@H]6[C@@H](CC(=O)O)C6(C)C)C(C)(C)[C@@H]5CC[C@]43C)[C@@H]12
Ans: 95

Q: Try this compound too: CC(C)(CC(=O)O[C@H]1CC[C@]2(C)[C@H]3CC[C@@H]4C5[C@H](C6(C)CC6)CC[C@]5(C(=O)N[C@H]5C[C@@H](C(=O)N6CCOCC6)C5(C)C)CC[C@@]4(C)[C@]3(C)CC[C@H]2C1(C)C)C(=O)O (stereo partly drawn)
Ans: 83
